Give measured Kp for each item. Keep answers brief.
- Stated conditions: male, Sprague-Dawley, rat, intravenous, K puu muscle, ratio of unbound muscle concentration to unbound blood concentration at steady state, n = 3, mean ± SD
Answers are plain numbers.

The following compounds each have a reported value; give each one's Kp.
1. CC12CC3CC(C)(C1)CC(N)(C3)C2 [Memantine, memantine]
2. Cc1cc(=O)n(-c2ccccc2)n1C [Antipyrine]
3. NCC1(CC(=O)O)CCCCC1
4. CC1COc2c(N3CCN(C)CC3)c(F)cc3c(=O)c(C(=O)O)cn1c23 (stereo not drawn)
5. NC(=O)N1c2ccccc2C=Cc2ccccc21 [Carbamazepine, carbamazepine]
6. C=C[C@H]1C[N@@]2CC[C@H]1C[C@@H]2[C@@H](O)c1ccnc2ccc(OC)cc12

a:
1. 2.13
2. 0.771
3. 1.39
4. 0.641
5. 1.02
6. 1.75

====

- Experiment notes: Rat pharmacokinetics following an IV single bolus
- Format: in vivo
- Stated conditions: plasma, 1 mg/kg
Readout label: half-life (h)
Numbers only, in h.

// solved cases for half-life follow
molecule=NCC1(CC(=O)O)CCCCC1 result=3.58
molecule="CC12CC3CC(C)(C1)CC(N)(C3)C2 [Memantine, memantine]" result=1.72

Shifting focus to the molecule that follows.
q: Please report the recorded half-life for `COc1ccc(CN(CCN(C)C)c2ccccn2)cc1` .
a: 2.16

====

- Stated conditions: male, Sprague-Dawley, rat, intravenous, K puu liver, ratio of unbound liver concentration to unbound blood concentration at steady state, n = 3, mean ± SD
Readout label: Kp
One number for each entry.

Consider the worked cases shown below.
molecule="CC12CC3CC(C)(C1)CC(N)(C3)C2 [Memantine, memantine]" result=1.56
molecule="NC(=O)N1c2ccccc2C=Cc2ccccc21 [Carbamazepine, carbamazepine]" result=0.913
molecule=NCC1(CC(=O)O)CCCCC1 result=2.23
molecule="Cc1cc(=O)n(-c2ccccc2)n1C [Antipyrine]" result=0.932

Please turn your attention to the following entry.
q: Would you kindly share the measured Kp for `C=C[C@H]1C[N@@]2CC[C@H]1C[C@@H]2[C@@H](O)c1ccnc2ccc(OC)cc12` ?
a: 0.677
